Values compiled from PubChem BioAssay AID1159580.

experiment: chemical genetic growth profiling, strain panel (AID 1159580);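 note: tested at 20 µM; growth read once vehicle control cultures reached saturation at 30 °C; 1 = growth at the plate median or of vehicle wells; lower values mean less growth of the strain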; conditions: S. cerevisiae deletion strains, growth OD, locus YLR221C, strain rsa3, active compounds read low
Among all 5,500 compounds or so, about 2,000 (36%) were called active. Inconclusive results (about 18%) are left out. The list shows a part of the results.
observation.type: normalized growth
# answer = number (no unit)

get_value(item= `CCn1cc(C(=O)O)c(=O)c2ccc(C)nc21` , readout=normalized growth) returns 0.943

get_value(item= `CCOC(=O)C1=C[C@]2(CC)CCCN3CCc4c(n1c1ccccc41)[C@@H]32` , readout=normalized growth) returns 1.02

get_value(item= `CCn1cc(C(=O)O)c(=O)c2cnc(N3CCNCC3)nc21` , readout=normalized growth) returns 1

get_value(item= `S=c1[nH]c2ccccc2s1` , readout=normalized growth) returns 0.936

get_value(item= `O=C(O)c1cc(=O)c(O)c2c(O)c(O)c(O)cc2c1` , readout=normalized growth) returns 0.685
